Target: FASN Keto-reductase Domain (Homo sapiens)
Construct: 10 μL hFASN enzyme (full length, 300 ng, purified in house) and 360 μM NADPH; made in house
Sequence (P49327 whole entry, the tested form may be a part): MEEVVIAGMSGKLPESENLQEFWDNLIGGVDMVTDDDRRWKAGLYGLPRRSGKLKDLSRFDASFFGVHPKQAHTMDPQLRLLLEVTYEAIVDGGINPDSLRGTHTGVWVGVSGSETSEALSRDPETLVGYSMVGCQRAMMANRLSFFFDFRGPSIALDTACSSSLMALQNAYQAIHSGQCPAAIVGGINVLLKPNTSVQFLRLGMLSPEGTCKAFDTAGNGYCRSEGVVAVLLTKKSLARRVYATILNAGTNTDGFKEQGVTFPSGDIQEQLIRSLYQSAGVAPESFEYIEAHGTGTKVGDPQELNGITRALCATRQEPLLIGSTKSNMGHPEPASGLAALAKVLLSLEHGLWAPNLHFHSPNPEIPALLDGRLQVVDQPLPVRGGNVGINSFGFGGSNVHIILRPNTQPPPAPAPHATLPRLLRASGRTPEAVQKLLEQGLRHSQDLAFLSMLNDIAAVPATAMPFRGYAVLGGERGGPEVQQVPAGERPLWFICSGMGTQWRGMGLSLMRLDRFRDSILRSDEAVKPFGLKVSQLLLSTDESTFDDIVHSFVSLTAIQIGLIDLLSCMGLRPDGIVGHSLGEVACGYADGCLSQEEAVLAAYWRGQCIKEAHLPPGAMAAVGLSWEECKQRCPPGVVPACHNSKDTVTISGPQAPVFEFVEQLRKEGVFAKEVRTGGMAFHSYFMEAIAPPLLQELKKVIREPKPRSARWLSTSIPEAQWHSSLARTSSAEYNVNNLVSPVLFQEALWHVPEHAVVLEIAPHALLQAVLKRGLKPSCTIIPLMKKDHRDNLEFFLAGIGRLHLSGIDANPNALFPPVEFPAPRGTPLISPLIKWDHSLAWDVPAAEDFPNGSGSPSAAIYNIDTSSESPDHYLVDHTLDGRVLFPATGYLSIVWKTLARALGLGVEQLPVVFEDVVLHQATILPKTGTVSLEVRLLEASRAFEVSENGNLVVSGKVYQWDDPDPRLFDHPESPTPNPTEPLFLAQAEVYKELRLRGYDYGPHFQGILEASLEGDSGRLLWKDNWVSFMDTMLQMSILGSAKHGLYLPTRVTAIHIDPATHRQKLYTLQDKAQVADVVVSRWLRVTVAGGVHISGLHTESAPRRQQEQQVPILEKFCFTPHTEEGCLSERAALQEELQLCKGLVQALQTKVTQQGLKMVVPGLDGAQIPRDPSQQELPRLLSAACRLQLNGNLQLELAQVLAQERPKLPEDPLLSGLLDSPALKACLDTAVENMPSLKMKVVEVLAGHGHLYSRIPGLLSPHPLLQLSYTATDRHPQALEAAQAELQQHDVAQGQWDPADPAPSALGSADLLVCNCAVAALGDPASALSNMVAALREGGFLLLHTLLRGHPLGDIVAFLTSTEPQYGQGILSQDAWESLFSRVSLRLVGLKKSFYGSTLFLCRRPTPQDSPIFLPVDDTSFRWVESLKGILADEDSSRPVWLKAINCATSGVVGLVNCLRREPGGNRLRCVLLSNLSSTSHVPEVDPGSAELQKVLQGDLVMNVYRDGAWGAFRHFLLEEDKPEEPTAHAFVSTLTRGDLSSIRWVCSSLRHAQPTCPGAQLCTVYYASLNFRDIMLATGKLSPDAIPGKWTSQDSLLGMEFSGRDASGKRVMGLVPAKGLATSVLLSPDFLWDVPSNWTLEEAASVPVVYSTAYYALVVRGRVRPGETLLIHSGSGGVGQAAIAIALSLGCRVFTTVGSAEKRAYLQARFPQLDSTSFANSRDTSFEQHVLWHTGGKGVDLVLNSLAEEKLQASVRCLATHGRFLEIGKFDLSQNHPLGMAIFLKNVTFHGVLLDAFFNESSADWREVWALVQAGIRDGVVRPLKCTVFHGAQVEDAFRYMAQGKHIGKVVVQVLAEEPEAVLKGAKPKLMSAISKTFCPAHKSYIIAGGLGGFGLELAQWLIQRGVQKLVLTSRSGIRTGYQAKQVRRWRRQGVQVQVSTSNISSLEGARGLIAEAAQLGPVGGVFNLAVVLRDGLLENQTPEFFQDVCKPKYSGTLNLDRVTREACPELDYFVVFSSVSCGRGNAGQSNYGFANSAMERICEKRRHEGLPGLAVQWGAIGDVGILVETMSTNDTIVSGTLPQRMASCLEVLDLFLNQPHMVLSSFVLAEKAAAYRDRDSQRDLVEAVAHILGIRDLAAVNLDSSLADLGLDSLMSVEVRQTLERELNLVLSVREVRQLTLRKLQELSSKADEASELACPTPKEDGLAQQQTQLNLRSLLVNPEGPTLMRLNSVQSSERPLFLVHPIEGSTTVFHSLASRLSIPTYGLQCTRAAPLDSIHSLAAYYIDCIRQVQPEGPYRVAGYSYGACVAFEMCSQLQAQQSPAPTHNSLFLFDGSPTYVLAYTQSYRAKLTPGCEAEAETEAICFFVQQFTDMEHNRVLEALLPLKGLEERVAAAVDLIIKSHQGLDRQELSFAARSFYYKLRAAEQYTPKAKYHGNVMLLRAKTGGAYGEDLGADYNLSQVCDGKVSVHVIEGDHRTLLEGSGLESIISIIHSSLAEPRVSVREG
Experiment: Fatty Acid Synthase Keto-Reductase Domain (FASN KR) Inhibition
Assay type: biochemical
Settings: mean where tested more than once; read-out: FASN K-R Domain pIC50 (converted)
Endpoint: IC50 (µM)

Here's what some known entries look like.
| Structure smiles | Unit spec | IC50 |
| --- | --- | --- |
| CC(C)Nc1ccc(C(=O)Nc2cc(C(=O)N3CCC(c4ccc(-c5ccnn5C)cc4)CC3)ccc2Cl)cn1 | µM | 0.245 |
| CCCCCN1CC(C(=O)Nc2cc(C(=O)N3CCC(c4ccc(-c5cnn(C)c5)cc4)CC3)ccc2C)C1 | µM | 0.282 |

A = Cc1ccc(C(=O)N2CC(c3ccc(-c4ccc5cnccc5c4)cc3)C2)cc1NC(=O)c1ccc(NC(C)C)nc1
B = CC(C)Nc1ccc(C(=O)Nc2cc(C(=O)N3CCC(c4ccc(-c5cccnc5)cc4)CC3)ccc2Cl)cn1
C = Cc1ccc(C(=O)N2CCC(c3ccc4c(c3)CC(=O)N4)CC2)cc1NC(=O)c1ccc(Cl)nc1
Task: Rank ascending by IC50. Kindly provide the labels arranged according to the requested ordering.
Result: A, B, C
(A: 0.0295 µM, B: 0.234 µM, C: 0.603 µM)

P = Cc1ccc(C(=O)N2CC(c3ccc(-c4cnn(C)c4)cc3)C2)cc1NC(=O)c1ccc(NC(C)C)nc1
Q = CC(C)Nc1ccc(C(=O)Nc2cc(C(=O)N3CC(c4ccc(-c5ccnc6ccccc56)cc4)C3)ccc2Cl)cn1
Task: Please tell me which of the two, P or Q , has the higher reported IC50 value. Answer format: the label of the selected item.
Result: P

Data origin: patent US9562035B2
